Tested on: XIP peptide (Xip251-270)
MEASUREMENT DESCRIPTION: small-molecule binders of XIP peptide, primary screen, biochemical, small-molecule microarray, fluorescence 635/667 nm, 0.5 µg/mL protein (AID 1183)
ASSAY SETUP: small-molecule microarray binding, fluorescence 635 nm; higher = more signal
// bucketize composite z-score: bottom end (below 0.5), midrange (0.5 to below 0.7), top end (0.7 or more)

COMPOUND | CLASSIFICATION
CCC(CC)C(O)C1C=CC2C(=O)N(c3ccccc3)C(=O)C2N1Nc1ccc(C(C)C)cc1 (stereo not given) | midrange
C=C(COC)/C(=C/C[C@H](OC(=O)c1ccncc1)c1ccccc1OCCO)c1cnc2ccccc2c1 | midrange
COCCOC(=O)N1C(=O)[C@@]2(c3cc(C#CC4=CCCCC4)ccc31)[C@H](C(N)=O)[C@H]1C(=O)O[C@H](c3ccccc3)[C@H](c3ccccc3)N1[C@@H]2c1ccccc1OCCO | top end
CC1=C[C@@]2(CO)C(=O)[C@]3(CO3)[C@@H]1[C@H]1[C@]2(C)C=C(CO)C(=O)[C@]12CO2 | bottom end
C=C(/C(=C/C[C@H](OC(C)=O)c1cccc(OCCO)c1)c1cnc2ccccc2c1)C(C)C | bottom end
C=C[C@@H](COC(C)=O)N(C(=O)OC(C)(C)C)S(=O)(=O)c1ccc(Br)cc1 | midrange
COc1ccccc1CN1C(=O)c2ccccc2[C@](Cc2ccccc2I)(C(=O)NCC(F)(F)F)[C@@H]1c1ccc(CO)cc1 | top end
CC=CC(O)C1C=CC2C(=O)N(c3ccccc3)C(=O)C2N1Nc1ccccc1F (stereo not given) | top end
C=CCNC(=O)[C@@H]1[C@H]2C(=O)O[C@H](c3ccccc3)[C@H](c3ccccc3)N2[C@H](c2ccc(O)cc2)[C@@]12C(=O)N(C(=O)OCCOC)c1ccc(C#CC3(O)CCCCCC3)cc12 | midrange
C#CCN([C@@H](Cc1ccc(O)cc1)C(=O)OC)[C@@H](/C=C/C1CC1)[C@H](O)Cc1ccccc1 | bottom end
CO[C@H]1O[C@H](CO)[C@@H](OC(=O)Nc2ccccc2-c2ccccc2)[C@H](OC(=O)Nc2ccc3c(c2)OCO3)[C@H]1OC(=O)Nc1ccc2c(c1)OCO2 | top end
C[N+](C)(C)CCCCCCNC(=O)[C@H]1C[C@H]2C(=O)NCC(=O)N2[C@H]1c1ccc(O)cc1 | top end
O=C(NCC(F)(F)F)[C@@H]1c2ccccc2C(=O)N(Cc2ccc(OC(F)(F)F)cc2)[C@H]1c1ccc(CO)cc1 | bottom end
O=C1C=C(c2ccccc2)C(=O)c2ccc([C@H]3Oc4ccccc4S(=O)(=O)N4CCC[C@@H]34)cc21 | bottom end
COC(=O)[C@@]1(Cc2ccc(F)cc2)[C@H]2c3cc(C(=O)N(C)C)n(CCc4ccc(O)c(OC)c4)c3C[C@H]2CN1C(=O)c1ccccc1 | bottom end

###

TGT: Carbonic anhydrase 2 (Homo sapiens) (UniProt P00918)
MEASUREMENT DESCRIPTION: CAII small-molecule binders, profiling panel, biochemical, small-molecule microarray, Alexa647-labelled CAII (AID 1122)
ASSAY SETUP: CAII-A647 binding fluorescence, higher = more signal

COMPOUND | TGT | composite z-score
C=CCC(OC(C)=O)[C@@H]1[C@@H](N(Cc2ccc(-c3cccc(C(F)(F)F)c3)o2)C(=O)c2ccc(C)cc2)c2cc(OCCCO)ccc2N1C(=O)c1ccc2ccccc2c1 (stereo partly drawn) | Carbonic anhydrase 2 (Homo sapiens) (UniProt P00918) | 0.151
CCOC(=O)C[C@H]1[C@H](OC(=O)c2ccc(C(=O)c3ccccc3)cc2)[C@@H](NC(=O)Cc2ccc(OC)cc2)c2cc(OCCCO)ccc2N1C(=O)c1ccccc1 | Carbonic anhydrase 2 (Homo sapiens) (UniProt P00918) | 0.188
CN(C)CCCCNC(=O)[C@@H]1C[C@@H]2C(=O)N[C@@H](Cc3ccccc3)C(=O)N2[C@@H]1c1cccc(OCCO)c1 | Carbonic anhydrase 2 (Homo sapiens) (UniProt P00918) | 0.74
Cc1ccc(S[C@]2(C(=O)O)CC(=O)N(Cc3ccccc3Cl)[C@@H]2c2ccc(CO)cc2I)cc1 | Carbonic anhydrase 2 (Homo sapiens) (UniProt P00918) | 0.31
CC=CC(O)C1C=CC2C(=O)N(c3ccccc3)C(=O)C2N1Nc1ccccc1F (stereo not drawn) | Carbonic anhydrase 2 (Homo sapiens) (UniProt P00918) | 0.74
CN(C)C(=O)[C@]1(CCS(=O)(=O)c2ccccc2)N=C(c2ccc(OCCCO)cc2)O[C@@H]1c1ccccc1N=[N+]=[N-] | Carbonic anhydrase 2 (Homo sapiens) (UniProt P00918) | 0.689
O=C1C2C=CC(C(O)c3ccc(Br)cc3)N(Nc3ccccc3F)C2C(=O)N1c1ccccc1 (stereo not drawn) | Carbonic anhydrase 2 (Homo sapiens) (UniProt P00918) | 0.762
O=C1N(Cc2ccccc2)c2ccccc2[C@@H]2OC(c3ccc(OCCCO)cc3)=N[C@]12Cc1ccccc1 | Carbonic anhydrase 2 (Homo sapiens) (UniProt P00918) | 0.607
O=C1NC(=O)C2C1C=CC(C(O)c1cccc3ccccc13)N2Nc1ccc(Cl)cc1Cl (stereo not drawn) | Carbonic anhydrase 2 (Homo sapiens) (UniProt P00918) | 0.358
O=C1OCCC/C=C\[C@H]2OC34C=CCN(CCN5CCOCC5)C(=O)[C@H]3N(CCCCCCO)C(=O)[C@@H]4C12 (stereo partly drawn) | Carbonic anhydrase 2 (Homo sapiens) (UniProt P00918) | 0.867
CCCC[C@@H]1C[C@H]1[C@@H](NC(=O)c1cccs1)c1ccc(C(F)(F)F)cc1 | Carbonic anhydrase 2 (Homo sapiens) (UniProt P00918) | -0.195
CCCCN1CC=CC23O[C@@H]4/C=C\CCC(C)OC(=O)C4[C@H]2C(=O)N(C(CO)C(C)C)[C@@H]3C1=O (stereo partly drawn) | Carbonic anhydrase 2 (Homo sapiens) (UniProt P00918) | 0.815
CC(CO)N1C(=O)[C@@H]2[C@H]3C(=O)OCC=C[C@H]3OC23C=CCN(C(C)(C)C)C(=O)[C@@H]13 (stereo partly drawn) | Carbonic anhydrase 2 (Homo sapiens) (UniProt P00918) | 0.852
COc1ccc([Si](C)(C)[C@@H]2[C@@H](CCO)O[C@]3(C(=O)N(Cc4ccc(N5CCCCC5=O)cc4)c4ccccc43)[C@H]2C)cc1 | Carbonic anhydrase 2 (Homo sapiens) (UniProt P00918) | 0.304
COCCOC(=O)N1C(=O)[C@@]2(c3cc(C#CC4=CCCCC4)ccc31)[C@H](c1ccccc1OCCO)N1[C@H](c3ccccc3)[C@H](c3ccccc3)OC(=O)[C@H]1[C@@H]2C(=O)N1CCCCCCC1 | Carbonic anhydrase 2 (Homo sapiens) (UniProt P00918) | 0.592
OCCCC1=CC(c2ccc(CN3CCCC3)cc2)N(Cc2sc3ccccc3c2Cl)CC1 (stereo not drawn) | Carbonic anhydrase 2 (Homo sapiens) (UniProt P00918) | 0.483
COC(=O)C(CC#Cc1ccc2c(c1)[C@]1(C(=O)N2)[C@H](C(=O)N2CCN(c3ncccn3)CC2)[C@H]2C(=O)O[C@H](c3ccccc3)[C@H](c3ccccc3)N2[C@@H]1c1ccc(OCCO)cc1)C(=O)OC | Carbonic anhydrase 2 (Homo sapiens) (UniProt P00918) | 0.259
NC(N)=NCCCn1cc(CNC(=O)[C@@H](N)Cc2ccccc2)nn1 | Carbonic anhydrase 2 (Homo sapiens) (UniProt P00918) | 0.948
CO[C@H]1O[C@H](CO)[C@@H](OC(=O)Nc2ccccc2-c2ccccc2)[C@H](OC(=O)Nc2ccc3c(c2)OCO3)[C@H]1OC(=O)Nc1ccc2c(c1)OCO2 | Carbonic anhydrase 2 (Homo sapiens) (UniProt P00918) | 0.498
CCOc1cc(C(O)C2C=CC3C(=O)N(c4ccccc4)C(=O)C3N2Nc2ccc(C#N)cc2)ccc1O (stereo not drawn) | Carbonic anhydrase 2 (Homo sapiens) (UniProt P00918) | 0.877
CC(C)C[C@@H]1NC(=O)[C@@H]2C[C@H](C(=O)NCCCCN(C)C)[C@H](c3cccc(OCCO)c3)N2C1=O | Carbonic anhydrase 2 (Homo sapiens) (UniProt P00918) | 0.466
Cc1ccc(S[C@]2(C(=O)NCC(F)(F)F)CC(=O)N(C3CCCCC3)[C@@H]2c2ccc(CO)cc2I)cc1 | Carbonic anhydrase 2 (Homo sapiens) (UniProt P00918) | 0.369
COC(=O)[C@@]1(Cc2ccccc2)[C@H]2c3cc(C(=O)N(C)C)n(Cc4c(CO)[nH]cc(C)c4=O)c3C[C@H]2CN1C(=O)c1ccccc1 | Carbonic anhydrase 2 (Homo sapiens) (UniProt P00918) | 0.777

###

MEASUREMENT DESCRIPTION: modulators of S6 phosphorylation in cells, primary screen, cell-based, A549, cytoblot, luminescence, serum-stimulated (AID 1158);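 also: serum-stimulated A549 lung adenocarcinoma cells; signal is phosphorylated S6 detected by cytoblot immunostaining with HRP secondary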
ASSAY SETUP: A549 phospho-S6 cytoblot, 5 h, higher = more signal
# binarize z-score: threshold 0.5 inclusive, high side true, low side false

COMPOUND | CLASSIFICATION
CN(C)CCCNC(=O)[C@@]1(c2ccc([N+](=O)[O-])cc2)CC(=O)N(CC23CC4CC(CC(C4)C2)C3)[C@@H]1c1ccc(CO)cc1I | false
C=CC[C@]1(C(=O)O)COC(c2ccc(OCCCO)cc2)=N1 | false
O=C1C[C@@](C(=O)NCCN2CCOCC2)(c2ccc([N+](=O)[O-])cc2)[C@@H](c2ccc(CO)cc2I)N1C1CCCCC1 | false
COc1ccc(CCNC(=O)[C@@H]2c3ccccc3C(=O)N(Cc3cc(C(F)(F)F)cc(C(F)(F)F)c3)[C@H]2c2ccc(CO)cc2)cc1 | false
O=C1N(Cc2ccccc2)c2ccccc2[C@@H]2OC(c3ccc(OCCCO)cc3)=N[C@]12Cc1ccccc1 | true
O=C1O[C@H](c2ccccc2)[C@H](c2ccccc2)N2[C@H]1[C@@H](C(=O)Nc1nc3ccccc3s1)[C@]1(C(=O)Nc3ccc(C#CC4(O)CCCCCC4)cc31)[C@H]2c1ccccc1OCCO | false
C=CCC(OC(C)=O)[C@@H]1[C@@H](N(Cc2cccc3ccccc23)C(=O)c2cccc3ccccc23)c2cc(OCCCO)ccc2N1C(=O)c1ccc(-c2ccccc2)cc1 (some centres undefined) | true
COC(=O)[C@@]1(Cc2ccc(F)cc2)[C@H]2c3cc(C(=O)N4CCCC4)n(CCN4CNCC4=O)c3C[C@H]2CN1C(=O)c1ccccc1 | true
CC1CC/C=C\[C@H]2OC34C=CCN(C(C)C)C(=O)[C@H]3N(CCCCCCO)C(=O)[C@@H]4C2C(=O)O1 (some centres undefined) | true
COC(=O)c1ccc([C@H](NC(=O)c2ccco2)[C@]2(C)C[C@H]2C2CCCCC2)cc1 | false
COc1ccc(C(O)C2C=CC3C(=O)N(c4ccccc4)C(=O)C3N2Nc2ccc([N+](=O)[O-])cc2)cc1 (centres undefined) | false
COc1cc(OC)c(C(O)C2C=CC3C(=O)N(C)C(=O)C3N2NC(=O)OC(C)(C)C)cc1Br (centres undefined) | false
C=CCC(OC(C)=O)[C@@H]1[C@@H](N(Cc2cc3ccccc3o2)C(=O)Cc2ccc(F)cc2)c2cc(OCCCO)ccc2N1C(=O)c1ccc2ccccc2c1 (some centres undefined) | false
C=CCNC(=O)[C@H]1[C@@H]2C(=O)O[C@@H](c3ccccc3)[C@@H](c3ccccc3)N2[C@@H](c2ccc(O)cc2)[C@]12C(=O)Nc1ccc(C#CC3(O)CCCCCC3)cc12 | false
C#CCN([C@@H](Cc1ccc(O)cc1)C(=O)OC)[C@@H](/C=C/C1CC1)[C@H](O)Cc1ccccc1 | false
CCOC(=O)C[C@H]1[C@H](OC(=O)Cc2ccc3c(c2)OCO3)[C@@H](NC(=O)Cc2ccc(OC)cc2)c2cc(OCCCO)ccc2N1C(=O)c1ccc2ccccc2n1 | true
CCOC(=O)C1=CC[C@@H](c2ccccc2C(F)(F)F)N(S(=O)(=O)c2ccc(C)cc2)[C@H]1c1ccc(C#N)cc1 | false
C=CCN1Cc2ccccc2[C@H]2OC(c3ccc(OCCCO)cc3)=N[C@@]2(CC=C)C1=O | false
CN1C(=O)C2C=CC(C(O)c3ccccn3)N(N(c3ccccc3)c3ccccc3)C2C1=O (centres undefined) | false
